// data source = the supplement of paper PMC3334620

Biological target: Mot3 (UniProt P54785)
Sequence: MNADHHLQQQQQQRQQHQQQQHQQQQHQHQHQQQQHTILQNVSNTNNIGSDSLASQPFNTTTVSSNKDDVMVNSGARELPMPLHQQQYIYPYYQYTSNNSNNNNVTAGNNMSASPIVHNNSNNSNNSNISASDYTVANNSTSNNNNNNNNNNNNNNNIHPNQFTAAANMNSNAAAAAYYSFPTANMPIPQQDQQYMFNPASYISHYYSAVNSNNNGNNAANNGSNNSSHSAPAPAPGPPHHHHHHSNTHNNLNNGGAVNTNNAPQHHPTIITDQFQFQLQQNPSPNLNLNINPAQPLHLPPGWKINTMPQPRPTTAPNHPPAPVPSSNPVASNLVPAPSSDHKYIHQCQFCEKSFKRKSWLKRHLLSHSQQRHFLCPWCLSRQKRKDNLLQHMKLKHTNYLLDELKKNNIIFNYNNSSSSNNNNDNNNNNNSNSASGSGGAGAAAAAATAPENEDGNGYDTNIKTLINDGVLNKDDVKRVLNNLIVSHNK
Test: PBM E-score (8-mer binding enrichment) (E-score (-0.5 to 0.5)); higher = stronger / more preferred TF binding
Details: protein concentration: 200 nM; construct: GST-full length
In all, about 33,000 sequences were measured (“E-score (-0.5 to 0.5)”: median about -0.035, highest 2% from about 0.34 on). This is one part of a sample in which the highest values are shown more often than they occur.
READOUT_LABEL: PBM E-score
Just the number, please, no unit after it.

Use these answered entries as a reference point.
SEQUENCE_STRING	SYSTEM_TESTED	PBM E-score
CCTACACG	Mot3 (UniProt P54785)	0.336
AACCAAAT	Mot3 (UniProt P54785)	0.127
ATTCCTTG	Mot3 (UniProt P54785)	0.0459
GTCATTCA	Mot3 (UniProt P54785)	-0.067
CTCAGCAG	Mot3 (UniProt P54785)	-0.113

Lab note: next sequence to report on.
Lab book: PBM E-score of "ACTACACT" noted as 0.181

* * *

Entries annotated with measured PBM E-score
Biological target: Mot3 (UniProt P54785)
Sequence: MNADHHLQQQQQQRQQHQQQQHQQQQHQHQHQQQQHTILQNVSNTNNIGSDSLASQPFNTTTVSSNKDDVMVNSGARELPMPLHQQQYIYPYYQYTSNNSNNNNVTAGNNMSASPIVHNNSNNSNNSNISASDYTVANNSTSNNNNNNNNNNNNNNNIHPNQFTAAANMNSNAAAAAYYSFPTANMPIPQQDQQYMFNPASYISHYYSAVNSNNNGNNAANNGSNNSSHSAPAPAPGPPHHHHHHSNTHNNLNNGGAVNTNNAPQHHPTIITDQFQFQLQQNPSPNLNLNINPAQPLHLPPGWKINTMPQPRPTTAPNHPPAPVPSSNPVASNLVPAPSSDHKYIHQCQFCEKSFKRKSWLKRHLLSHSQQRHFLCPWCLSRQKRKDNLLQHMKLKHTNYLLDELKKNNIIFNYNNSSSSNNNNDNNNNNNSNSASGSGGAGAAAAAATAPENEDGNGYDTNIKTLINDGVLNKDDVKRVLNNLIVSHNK
Test: PBM E-score (8-mer binding enrichment) (E-score (-0.5 to 0.5)); higher = stronger / more preferred TF binding
Conditions: protein concentration: 200 nM; construct: GST-full length
The full ranking holds about 33,000 sequences; the median of “E-score (-0.5 to 0.5)” is about -0.035, and the highest 2% start at about 0.34. The sample holds the highest values, similar sequences and a random draw of the others, so the mix is not that of the screen.

SEQUENCE_STRING	PBM E-score
CTTGTAAC	0.281
ATTGTAAA	0.3
AGTATCGA	0.122

Lab book: PBM E-score of "ACGATCTC" noted as -0.198

Lab book: PBM E-score of "CTTCTAAC" noted as -0.0665

Lab book: PBM E-score of "GCTGTAAA" noted as 0.25

Lab book: PBM E-score of "CAACACGA" noted as 0.363

Lab book: PBM E-score of "GGGGCACC" noted as -0.152

Lab book: PBM E-score of "CAACACGC" noted as 0.322

Lab book: PBM E-score of "ATGTAACA" noted as 0.373

Lab book: PBM E-score of "AAGGCGCG" noted as 0.252

Lab book: PBM E-score of "GTGTAAGA" noted as 0.312

Lab book: PBM E-score of "GAGGCACC" noted as 0.463

Lab book: PBM E-score of "GTGTAACA" noted as 0.343

Lab book: PBM E-score of "GTATCGTA" noted as 0.197

Lab book: PBM E-score of "AATGTAGA" noted as 0.221

Lab book: PBM E-score of "CTGCAAGA" noted as 0.0551

Lab book: PBM E-score of "AAACACGA" noted as 0.292

Lab book: PBM E-score of "GACGCAAC" noted as -0.0695

Lab book: PBM E-score of "GATGTAAA" noted as 0.35

Lab book: PBM E-score of "GCGTAACA" noted as 0.196

Lab book: PBM E-score of "CGGGCACG" noted as 0.263
